System: Noggin (protein binding on small-molecule microarray)
Procedure summary: Noggin binders on small-molecule microarray, primary screen, biochemical, 635/667 nm fluorescence (AID 1095);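 also: score merges 667 nm feature fluorescence with signal to noise over triplicate slides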
Cond: 635 nm fluorescence, higher = more signal
Label rule, in plain words: composite z-score of 0.4 and up is 1, under 0.4 is 0.

- Compound: "O=C1c2ccccc2[C@](Cc2ccccc2I)(C(=O)NCc2ccccc2)[C@H](c2ccc(CO)cc2)N1C1CCCCC1"
  Category label: 1
- Compound: "C=CCN1C(=O)[C@]2(CC=C)N=C(c3ccc(OCCCO)cc3)O[C@@H]2c2ccccc21"
  Category label: 1
- Compound: "C=CC1c2cc(O)c(OC)cc2CCN1Cc1sc2ccccc2c1Cl (stereo unspecified)"
  Category label: 0
- Compound: "O=C1OCC=C[C@H]2OC34C=CCN(Cn5nnc6ccccc65)C(=O)[C@H]3N(CCCCCCO)C(=O)[C@@H]4[C@@H]12 (stereo partly specified)"
  Category label: 0
- Compound: "Cc1ccc(S[C@]2(C(=O)O)CC(=O)N(Cc3ccccc3Cl)[C@@H]2c2ccc(CO)cc2)cc1"
  Category label: 0

----------
Procedure summary: small-molecule microarray binders of probe aShh, primary screen, biochemical, biotinylated probe, 635/667 nm fluorescence (AID 1114);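 also: probe is biotin-labelled aShh protein from a stem cell growth factor screen; measures binding of labelled protein to compounds printed on the slide; score merges feature fluorescence at 667 nm with signal-to-noise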
Cond: higher = more signal
Label rule, in plain words: composite z-score of -0.06 and up is 1 (yes), under -0.06 is 0 (no).

- Compound: "CC1CC/C=C\\[C@H]2OC34C=CCN(CCN5CCOCC5)C(=O)[C@H]3N(CCO)C(=O)[C@@H]4C2C(=O)O1 (stereo partly drawn)"
  Category label: "0 (no)"
- Compound: "Cc1ccc(S[C@]2(C(=O)O)CC(=O)N(Cc3ccccc3Cl)[C@@H]2c2ccc(CO)cc2)cc1"
  Category label: "1 (yes)"
- Compound: "NCCCCCCNC(=O)[C@@H]1C[C@@H]2C(=O)N3CCC[C@H]3C(=O)N2[C@@H]1c1ccc(O)cc1"
  Category label: "1 (yes)"
- Compound: "CO[C@H]1O[C@H](CO)[C@@H](OC(=O)c2ccc(Br)cc2)[C@@H]2OC(=O)[C@@H](Cc3ccc4ccccc4c3)C/C=C/C[C@H](Cc3ccc4ccccc4c3)C(=O)O[C@@H]12"
  Category label: "0 (no)"
- Compound: "CC(C)CNC(=O)[C@@]1(c2ccc([N+](=O)[O-])cc2)CC(=O)N(C2CCCCC2)[C@@H]1c1ccc(CO)cc1I"
  Category label: "0 (no)"
- Compound: "O=C(O)[C@H]1C[C@H]2C(=O)N3CCC[C@H]3C(=O)N2[C@H]1c1cccc(OCCO)c1"
  Category label: "0 (no)"
- Compound: "C=CCNC(=O)[C@@H]1[C@H]2C(=O)O[C@H](c3ccccc3)[C@H](c3ccccc3)N2[C@H](c2ccc(OCCO)cc2)[C@@]12C(=O)N(C(=O)OCCOC)c1ccc(C#CC3=CCCCC3)cc12"
  Category label: "1 (yes)"
- Compound: "C=CCN1C(=O)[C@]2(CC=C)N=C(c3ccc(OCCCO)cc3)O[C@@H]2c2ccccc21"
  Category label: "1 (yes)"
- Compound: "O=C1C[C@]2(c3ccc([N+](=O)[O-])cc3)C(=O)N(Cc3ccccc3)c3cc(CO)ccc3[C@H]2N1CC12CC3CC(CC(C3)C1)C2"
  Category label: "0 (no)"
- Compound: "O=C(CS)NCCCCCCNC(=O)[C@H]1C[C@H]2C(=O)N[C@@H](Cc3ccccc3)C(=O)N2[C@H]1c1cccc(OCCO)c1"
  Category label: "1 (yes)"
- Compound: "CC(CO)N1C(=O)[C@@H]2C3C(=O)OCCC/C=C\\[C@H]3OC23C=CCN(Cn2nnc4ccccc42)C(=O)[C@@H]13 (stereo partly drawn)"
  Category label: "1 (yes)"
- Compound: "CN1C(=O)C2C=CC(C(O)c3c(F)cccc3Cl)N(Nc3ccccc3)C2C1=O (stereo not drawn)"
  Category label: "1 (yes)"
- Compound: "NCCCCCCNC(=O)[C@H]1C[C@H]2C(=O)N[C@@H](Cc3ccccc3)C(=O)N2[C@H]1c1ccc(O)cc1"
  Category label: "0 (no)"
- Compound: "CC=CC(O)C1C=CC2C(=O)N(C)C(=O)C2N1N1CCCCC1 (stereo not drawn)"
  Category label: "0 (no)"
- Compound: "CCOC(=O)C1=CC[C@@H](c2ccccc2)N(S(=O)(=O)c2ccc(C)cc2)C1"
  Category label: "1 (yes)"
- Compound: "O=C1NC(=O)C2C1C=CC(C(O)c1ccc(Br)cc1)N2Nc1ccccn1 (stereo not drawn)"
  Category label: "1 (yes)"
- Compound: "CC(C)N1CC=CC23O[C@@H]4C=CCCOC(=O)C4[C@H]2C(=O)N(CCO)[C@@H]3C1=O (stereo partly drawn)"
  Category label: "0 (no)"
- Compound: "CC=CC(O)C1C=CC2C(=O)N(c3ccccc3)C(=O)C2N1Nc1ccccc1 (stereo not drawn)"
  Category label: "1 (yes)"

Origin of measurements: PubChem BioAssay
